Biological target: T1, ubiquitin-fold modifier 1 (UFM1) (human, UniProt P61960 1-83)
T1 construct: ubiquitin-fold modifier 1 (UFM1), human; the form that ends at Gly 83 (the residues missing in the models are counted up to Gly 83); pET15b, N-terminal His6 followed by a TEV site; purified by the protocol of the UBA5 constructs, which removes the tag; In solution a monomer and a fraction of dimer; also called UFM1 WT; UFM1 alone; source: E. coli, purified (His-Trap, TEV cleavage, second …)
T1 sequence (P61960 1-83): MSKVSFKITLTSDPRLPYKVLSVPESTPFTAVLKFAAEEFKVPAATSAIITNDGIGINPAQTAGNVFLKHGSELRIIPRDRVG
Experiment: fluorescence polarisation; UFM1 at various concentrations with 120 nM N-terminal fluorescein-labeled UIS peptide; 50 mM Hepes pH 7.5, 150 mM NaCl, 5% glycerol, 0.2 mg/ml BSA; room temperature; triplicate; one site specific binding fit
Settings: both partners purified
Ends that are not written are not given here. fluorescein = fluorescein label on the N-terminus
Outcome Measure: Kd (µM)
One number for each entry, in µM.

Query :: Check the records and state Kd for fluorescein-IIHEDNEWGIELV (peptide, UniProt Q9GZZ9 334-346, looked up, source: synthetic peptide) [fluorescein-labeled UIS peptide (amino acids 334–346 of UBA5)]
Result :: 8.47
